Biological target: Beta-3 Adrenergic Receptor (Homo sapiens (Human), UniProt P13945)
Sequence (P13945 whole entry, species assumed): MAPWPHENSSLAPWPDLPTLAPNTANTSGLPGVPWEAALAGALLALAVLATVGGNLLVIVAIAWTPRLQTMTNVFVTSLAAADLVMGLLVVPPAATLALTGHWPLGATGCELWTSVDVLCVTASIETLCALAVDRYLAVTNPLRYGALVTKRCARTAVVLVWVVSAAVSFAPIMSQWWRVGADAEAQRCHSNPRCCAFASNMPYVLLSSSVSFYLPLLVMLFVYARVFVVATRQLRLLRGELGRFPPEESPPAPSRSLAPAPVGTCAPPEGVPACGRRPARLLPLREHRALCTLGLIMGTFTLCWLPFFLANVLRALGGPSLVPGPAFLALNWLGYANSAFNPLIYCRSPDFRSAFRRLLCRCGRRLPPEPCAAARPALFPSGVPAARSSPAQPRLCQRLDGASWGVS
Assay: Homogeneous Time-Resolved Fluorescence (HTRF) cAMP antagonist assay, IC50 determination
Settings: CHO-K1 cells stably expressing recombinant receptor, isoproterenol at EC90
pIC50: −log10 of the molar value.
Endpoint name: pIC50

Compound	Quantitative result
CNS(=O)(=O)c1cccc(OC[C@@H](O)CN[C@@H]2COC3(CCN(S(=O)(=O)c4ccc5c(c4)CCCO5)CC3)C2)c1	7.79

I. CNS(=O)(=O)c1cccc(OC[C@@H](O)CNC2COC3(CCN(S(=O)(=O)c4cc(Br)ccc4C)CC3)C2)c1 (stereo partly drawn)
II. CNS(=O)(=O)c1cccc(OC[C@@H](O)CN[C@@H]2COC3(CCN(S(=O)(=O)c4ccc5c(c4)N(C)CCO5)CC3)C2)c1
Input pair: I , II . Output: entry with lower pIC50. Please identify the chosen entry by its label.
I
(I: 7.37, II: 7.93)

###

Molecular target: UniProtKB P13945
Assay: Homogeneous Time-Resolved Fluorescence (HTRF) cAMP antagonist assay, IC50 determination
Conditions: CHO-K1 cells stably expressing recombinant receptor, isoproterenol at EC90
Method: HTRF cAMP assays were performed according to manufacturer's instructions (Cisbio, cAMP Dynamic 2 Assay Kit; #62AM4PEJ). CHO-K1 cells stably expressing recombinant receptor were harvested and suspended in warm PBS to make a 300,000 cells/mL stock. […] Compounds were dissolved and serially diluted (5-fold) in DMSO to generate a 10-point dose response stock. […] The EC90 for isoproterenol, a beta-adrenergic agonist, was determined in separate experiments using standard methods to measure agonist potencies. […]
pIC50: −log10 of the molar value.
Endpoint name: pIC50

Compound	pIC50
CNS(=O)(=O)c1cccc(OC[C@@H](O)CNC2COC3(CCN(S(=O)(=O)c4ccc(-c5ccc(CN)cc5)cc4)CC3)C2)c1 (stereo partly shown)	7.68
CNS(=O)(=O)c1cccc(OC[C@@H](O)CN[C@H]2COC3(CCN(S(=O)(=O)c4cc(-c5ccc(CN)cc5)ccc4OC)CC3)C2)c1	7.96
CNS(=O)(=O)c1cccc(OC[C@@H](O)CNC2COC3(CCN(S(=O)(=O)c4ccc5cc(OC)ccc5c4)CC3)C2)c1 (stereo partly shown)	7.94

P. CNS(=O)(=O)c1cccc(OC[C@@H](O)CNC2COC3(CCN(S(=O)(=O)c4cccc(OC)c4)CC3)C2)c1 (stereo partly shown)
Q. C[C@@H](NS(=O)(=O)c1cccc(OC[C@@H](O)CNC2COC3(CCN(S(=O)(=O)c4ccc5ccccc5c4)CC3)C2)c1)C(C)(C)C (stereo partly shown)
R. CNS(=O)(=O)c1cccc(OC[C@@H](O)CN[C@H]2COC3(CCN(S(=O)(=O)c4cc(C)ccc4F)CC3)C2)c1
S. CCCCCNS(=O)(=O)c1cccc(OC[C@@H](O)CNC2COC3(CCN(S(=O)(=O)c4ccc5ccccc5c4)CC3)C2)c1 (stereo partly shown)
T. CNS(=O)(=O)c1cccc(OC[C@@H](O)CNC2COC3(CCN(S(=O)(=O)c4cccc(-c5cncc(C#N)c5)c4)CC3)C2)c1 (stereo partly shown)
Given 5 compounds, produce a descending ranking by pIC50. Provide the labels, sequenced as the question asks.
P, R, T, S, Q
(P: 7.86, R: 7.61, T: 7.32, S: 6.88, Q: 6.59)
